test: Brain levels in rat following IP administration; type: in vivo; conditions: rat, brain, intraperitoneal, 100 mg/kg, NTP-2006 100 mg/kg IP, PBx pretreated; 6 h
measurement type: concentration at 6 h (ng/mL)
Reply numerically in ng/mL, unit not repeated.

The reported concentration at 6 h of the molecule CCCCNc1cc(C(=O)OCC(=O)N(CC)CC)cc(S(N)(=O)=O)c1Oc1ccccc1 was 1.88

====

biological target: α4β3γ2 GABAA receptor isoform (Homo sapiens, UniProt P18507+P28472+P48169); construct: expressed in transfected cells; host or cells: HEK-293T, transient transfection; assay: Whole-cell patch clamp, transfected HEK-293T cells; format: cell-based, rat or human; conditions: 100 μM GABA (FIG. 42); read-out: IC50, inhibition of α4β3γ2 GABAA receptor isoform
Sequence (P48169 36-554): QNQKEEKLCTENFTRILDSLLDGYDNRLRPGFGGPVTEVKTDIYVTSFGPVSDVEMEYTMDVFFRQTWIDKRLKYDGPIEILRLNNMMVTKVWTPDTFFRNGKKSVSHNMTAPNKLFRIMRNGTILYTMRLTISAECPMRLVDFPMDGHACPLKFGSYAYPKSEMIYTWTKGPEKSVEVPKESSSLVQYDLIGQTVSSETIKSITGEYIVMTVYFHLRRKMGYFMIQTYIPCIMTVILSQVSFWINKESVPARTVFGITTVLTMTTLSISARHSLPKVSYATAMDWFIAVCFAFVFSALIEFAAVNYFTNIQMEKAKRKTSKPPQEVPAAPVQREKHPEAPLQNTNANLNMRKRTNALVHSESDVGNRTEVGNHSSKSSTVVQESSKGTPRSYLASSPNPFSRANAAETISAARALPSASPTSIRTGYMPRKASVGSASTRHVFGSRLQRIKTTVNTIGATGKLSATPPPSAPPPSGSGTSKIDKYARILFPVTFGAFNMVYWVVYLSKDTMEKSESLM
Sequence (P28472 26-473): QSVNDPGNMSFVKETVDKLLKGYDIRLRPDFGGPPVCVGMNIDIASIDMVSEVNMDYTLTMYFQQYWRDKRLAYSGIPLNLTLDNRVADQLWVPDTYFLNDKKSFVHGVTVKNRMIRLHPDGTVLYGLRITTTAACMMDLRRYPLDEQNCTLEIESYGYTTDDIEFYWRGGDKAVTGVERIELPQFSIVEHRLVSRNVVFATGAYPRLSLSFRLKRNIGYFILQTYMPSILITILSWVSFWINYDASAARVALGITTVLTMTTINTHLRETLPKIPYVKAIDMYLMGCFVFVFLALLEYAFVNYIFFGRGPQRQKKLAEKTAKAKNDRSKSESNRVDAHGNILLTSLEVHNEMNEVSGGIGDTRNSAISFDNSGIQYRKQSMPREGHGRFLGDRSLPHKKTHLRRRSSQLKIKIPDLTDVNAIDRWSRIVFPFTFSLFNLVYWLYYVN
Sequence (P18507 40-475): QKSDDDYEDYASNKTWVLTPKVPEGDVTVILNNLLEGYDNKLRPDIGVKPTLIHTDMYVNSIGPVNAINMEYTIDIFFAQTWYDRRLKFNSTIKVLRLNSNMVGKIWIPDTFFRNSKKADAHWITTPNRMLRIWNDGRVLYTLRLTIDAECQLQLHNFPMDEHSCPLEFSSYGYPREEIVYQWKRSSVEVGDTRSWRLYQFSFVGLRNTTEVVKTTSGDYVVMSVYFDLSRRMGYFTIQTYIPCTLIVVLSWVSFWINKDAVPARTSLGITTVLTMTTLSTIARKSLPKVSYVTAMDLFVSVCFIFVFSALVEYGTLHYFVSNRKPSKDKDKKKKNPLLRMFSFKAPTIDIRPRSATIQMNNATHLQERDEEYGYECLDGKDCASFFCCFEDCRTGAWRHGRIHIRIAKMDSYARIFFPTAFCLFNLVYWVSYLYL
measurement type: IC50

The recorded IC50 with α4β3γ2 GABAA receptor isoform (Homo sapiens, UniProt P18507+P28472+P48169) for CCCCN(CCCC)c1cc(C(=O)O)cc(S(N)(=O)=O)c1Oc1ccccc1 was 16 µM

Cited source: patent US9682928B2
